Reference for the values: PubChem BioAssay AID588342

- TGT: Luciferin 4-monooxygenase (Photinus pyralis)
- ASSAY EXPLANATION: qHTS profiling assay for firefly luciferase inhibitor/activator using purifed enzyme and Km concentrations of substrates (counterscreen for miR-21 project); also: nearly all actives have a fitted effect of over 55% in size
- PARTICULARS: purified FLuc, luminescence inhibition; series mostly up to 57.5 µM
Hit rate of the full screen: of about 360,000 compounds, about 25,000 (6.9%) were called active. Roughly 9% stayed inconclusive and do not appear here. Calls follow the shape of the dose curve; as a rule, active = well fitted inhibition curve with a large enough effect; inconclusive = small, poorly fitted or top-dose-only effect; inactive = flat fitted curve, though single readings scatter. The list comes from a sample in which actives are over-represented; it also holds close analogues and randomly drawn compounds.
Your answer must be one of the following: active, inactive

Sample answers from the record:
O=C(Nc1ccon1)c1cccc(Cl)c1 ... inactive
CCOc1ccc(NC(=O)c2cc3c(=O)n(Cc4cccs4)ccc3nc2C)cc1 ... inactive
O=S(=O)(N1CCCCC1)N1CCNCC1 ... inactive
O=C(Nc1ccon1)c1sc2ccccc2c1Cl ... active
COc1ccc(CCNC(=O)Cn2c(=O)cc(C(F)(F)F)c3c(C)nn(C)c32)c(OC)c1 ... inactive
CCCC(=O)Nc1ccc(NC(=O)c2sc3ccccc3c2Cl)cc1 ... inactive
COc1cc(/C=N/Nc2nn3cnnc3c3ccccc23)cc(OC)c1OC ... active
COc1ccc(OC)c(Nc2nc3ccccc3n3cnnc23)c1 ... inactive

Tell me the recorded outcome of this test for `O=C(CNC(=O)c1ccco1)OCC(=O)c1ccccc1` .
inactive

Tell me the recorded outcome of this test for `CCOC(=O)Cc1ccc(NC(=O)Nc2c[nH]c(=O)[nH]c2=O)cc1` .
inactive

Tell me the recorded outcome of this test for `CCc1ccc(NC(=O)c2nn(-c3ccc(C)cc3)c(=O)n(C)c2=O)cc1` .
inactive

###

- TGT: Luciferin 4-monooxygenase (Photinus pyralis) (UniProt P08659)
- Sequence (P08659 whole entry, looked up): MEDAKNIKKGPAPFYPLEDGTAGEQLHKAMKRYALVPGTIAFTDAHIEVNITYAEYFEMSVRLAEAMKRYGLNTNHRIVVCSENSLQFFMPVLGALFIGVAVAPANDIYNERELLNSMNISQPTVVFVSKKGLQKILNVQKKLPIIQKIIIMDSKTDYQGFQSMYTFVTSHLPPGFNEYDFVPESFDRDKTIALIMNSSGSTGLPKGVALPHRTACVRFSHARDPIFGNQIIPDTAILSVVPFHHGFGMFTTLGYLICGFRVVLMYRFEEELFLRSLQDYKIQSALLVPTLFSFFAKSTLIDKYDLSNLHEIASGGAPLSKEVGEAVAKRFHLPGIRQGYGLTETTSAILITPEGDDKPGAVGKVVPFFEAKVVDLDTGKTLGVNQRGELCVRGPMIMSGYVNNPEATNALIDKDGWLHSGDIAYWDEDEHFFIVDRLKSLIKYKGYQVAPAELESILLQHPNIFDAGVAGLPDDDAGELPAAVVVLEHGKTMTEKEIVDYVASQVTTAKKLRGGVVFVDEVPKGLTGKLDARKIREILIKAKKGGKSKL
- ASSAY EXPLANATION: qHTS profiling assay for firefly luciferase inhibitor/activator using purifed enzyme and Km concentrations of substrates (counterscreen for miR-21 project); also: nearly all actives have a fitted effect of over 55% in size; also: potency is read from the fitted curve at half-maximal effect
- PARTICULARS: purified FLuc, luminescence inhibition; series mostly up to 57.5 µM
In all, about 360,000 compounds went through this assay and about 25,000 (6.9%) were called active. Roughly 9% stayed inconclusive and do not appear here. The sample as a whole holds a higher share of actives than the screen did.
READOUT TYPE: Potency

Worked cases, Potency given:
CCc1nnc(NC(=O)CCCSc2nc3ccccc3[nH]2)s1 ... inactive
O=C(Nc1cc(C(F)(F)F)ccc1Cl)c1nc2ccccc2nc1N1CCCCC1 ... inactive
Cc1ccc(N2CC(C(=O)Nc3ccc(N(C)C)cc3)CC2=O)cc1Cl (stereo unspecified) ... inactive
CC(C)c1ccc(NC(=O)Cn2nnc(C(=O)NCCc3ccccc3)c2N)cc1 ... inactive
CC(C)c1ccc(NC(=O)Cn2ncc3ccccc32)cc1 ... 10.7 µM (active)

Now consider a different compound.
# lookup: Potency of `COc1ccccc1CSc1nc2ccccc2[nH]1`
13.5 µM (active)

###

- TGT: Luciferin 4-monooxygenase (Photinus pyralis) (UniProt P08659)
- ASSAY EXPLANATION: qHTS profiling assay for firefly luciferase inhibitor/activator using purifed enzyme and Km concentrations of substrates (counterscreen for miR-21 project); also: nearly all actives have a fitted effect of over 55% in size
- PARTICULARS: purified FLuc, luminescence inhibition; series mostly up to 57.5 µM
In all, about 360,000 compounds went through this assay and about 25,000 (6.9%) were called active. About 9% were inconclusive and are not listed. The call rests on the fitted dose curve; in most records, active means well fitted inhibition curve with a large enough effect; inconclusive means small, poorly fitted or top-dose-only effect; inactive means flat fitted curve, though single readings scatter. Many of the other results were omitted from the sample, so actives are more common in it than they were.
Your answer must be one of the following: active, inactive

Sample answers from the record:
COCCn1cnnc1SCC(=O)Nc1cccc(S(=O)(=O)N2CCCCC2)c1 ... inactive
COc1cccc(OCc2cc(/C=N/NC(=O)c3nc(Cl)c(Cl)c(N)c3Cl)ccc2OC)c1 ... inactive
CCOc1cc(C(=O)O)ccc1OCCOc1ccccc1 ... inactive

Tell me the recorded outcome of this test for `COCCN(CCOC)c1nc(N)c2c(N)nc3c(c2c1C#N)CC(=O)N3Cc1ccc(Cl)cc1` .
inactive

###

- TGT: Luciferin 4-monooxygenase (Photinus pyralis) (UniProt P08659)
- ASSAY EXPLANATION: qHTS profiling assay for firefly luciferase inhibitor/activator using purifed enzyme and Km concentrations of substrates (counterscreen for miR-21 project); also: nearly all actives have a fitted effect of over 55% in size
- PARTICULARS: purified FLuc, luminescence inhibition; series mostly up to 57.5 µM
About 25,000 (6.9%) of roughly 360,000 compounds were called active. Inconclusive results (about 9%) are left out. Calls follow the shape of the dose curve; as a rule, active = well fitted inhibition curve with a large enough effect; inconclusive = small, poorly fitted or top-dose-only effect; inactive = flat fitted curve, though single readings scatter. Only a selection was taken, and actives are over-represented in it overall.
Your answer must be one of the following: active, inactive

Sample answers from the record:
CCOc1ccc(C(=O)c2cn(Cc3ccccc3OC)c3ccc(F)cc3c2=O)cc1 ... inactive
CC(C)(C)c1ccc(C(=O)CSc2ncn[nH]2)cc1 ... active
CN(Cc1ccccc1)C(=O)c1cn(C)c2ccc(S(=O)(=O)N3CCCCC3)cc2c1=O ... inactive
C=CCn1c(C)cc(C2=NNC(=NCC)SC2)c1C ... active
Oc1ccc(/C=N/Nc2nc(-c3ccccc3F)nc3ccccc23)c(O)c1 ... active

Tell me the recorded outcome of this test for ClC1(Cl)CC1CSc1ncn[nH]1 (configuration not stated) .
inactive

Tell me the recorded outcome of this test for `Cc1nc2ccccc2nc1N/N=C/c1ccc(O)cc1O` .
active

Tell me the recorded outcome of this test for `COCCn1c(C)cc(C2=NNC(=Nc3ccc(F)cc3)SC2)c1C` .
active

Tell me the recorded outcome of this test for CCC(=O)c1ccc(OCC(=O)N(CC)CC2COc3ccccc3O2)cc1 (configuration not stated) .
inactive

Tell me the recorded outcome of this test for `CCN(C(=O)CSc1ncn[nH]1)c1cccc2ccccc12` .
inactive

Tell me the recorded outcome of this test for `COc1ccccc1NC(=O)c1sc2nc(C)c(C(=O)Nc3ccc(Cl)cc3)c(-c3ccc(Br)cc3)c2c1N` .
inactive

Tell me the recorded outcome of this test for COc1ccc(OC)c(C(O)c2nc3ccccc3n2C)c1 (configuration not stated) .
inactive

Tell me the recorded outcome of this test for `CC(=O)Nc1ccc(C(=O)Nc2nc(-c3cc(C)n(Cc4ccccc4)c3C)cs2)cc1` .
inactive

Tell me the recorded outcome of this test for `C/C=C/C=C/C(=O)O` .
inactive

###

- TGT: Luciferin 4-monooxygenase (Photinus pyralis)
- ASSAY EXPLANATION: qHTS profiling assay for firefly luciferase inhibitor/activator using purifed enzyme and Km concentrations of substrates (counterscreen for miR-21 project); also: nearly all actives have a fitted effect of over 55% in size
- PARTICULARS: purified FLuc, luminescence inhibition; series mostly up to 57.5 µM
Hit rate of the full screen: of about 360,000 compounds, about 25,000 (6.9%) were called active. Another 9% or so got no clear call; they are omitted. The call rests on the fitted dose curve; in most records, active means well fitted inhibition curve with a large enough effect; inconclusive means small, poorly fitted or top-dose-only effect; inactive means flat fitted curve, though single readings scatter. Only a selection was taken, and actives are over-represented in it overall.
Your answer must be one of the following: active, inactive

Sample answers from the record:
Cc1ccc(-c2noc(CSc3nnnn3-c3ccccc3)n2)cc1 ... inactive
COc1ccccc1CNC(=O)C1CCN(S(C)(=O)=O)CC1 ... inactive
Cc1ccc2nc3c(cc(C(=O)NC4CCCCC4)c(=N)n3C(C)C)c(=O)n2c1 ... inactive
O=C(Cn1c(=O)n(-c2ccc(F)cc2)c(=O)c2sc3ccccc3c21)NC1CCCC1 ... inactive
Cc1ccccc1CN1CCC(CNC(=O)c2c(C)oc3ncnc(N4CCCCC4)c23)CC1 ... inactive
CCC(C)NC(=O)Cn1c(=O)n(-c2ccc(Cl)cc2)c(=O)c2c3c(sc21)CCCC3 (configuration not stated) ... inactive

Tell me the recorded outcome of this test for `Cc1ccc(C)c(NC2=NCC(=O)N2c2ccc3c(c2)OCCO3)c1` .
inactive

Tell me the recorded outcome of this test for `COc1ccc(N2C(=O)c3cccc4cccc(c34)C2=O)nn1` .
inactive

Tell me the recorded outcome of this test for CCC(Oc1ccccc1C)C(=O)Nc1ccc(S(=O)(=O)Nc2cc(C)on2)cc1 (configuration not stated) .
inactive

Tell me the recorded outcome of this test for `Cc1nnc(N/N=C/c2ccccn2)[nH]c1=O` .
inactive

Tell me the recorded outcome of this test for `COc1ccccc1CNC(=O)C1CCN(C(=O)[C@@H]2Cc3ccccc3CN2)CC1` .
inactive

Tell me the recorded outcome of this test for `c1ccc(C2=Nc3cccc4cccc(c34)N2)cc1` .
active

Tell me the recorded outcome of this test for `CCc1cnc2c(c1SCC(=O)c1ccccc1)c(=O)n(C)c(=O)n2C` .
inactive

Tell me the recorded outcome of this test for `Cc1cc(=O)[nH]c(Nc2cccc(Br)c2)n1` .
inactive

Tell me the recorded outcome of this test for `CCn1c(=O)cc(OCC(=O)Nc2cc(Cl)c(OC)cc2OC)c2ccccc21` .
inactive

Tell me the recorded outcome of this test for COc1cc(C2C(C(=O)c3sc(C)nc3C)=C(O)C(=O)N2CCN(C)C)cc(OC)c1OC (configuration not stated) .
inactive

Tell me the recorded outcome of this test for `CCOc1ccc(NC(=O)c2cc(S(=O)(=O)N3CCCC3)c[nH]2)cc1` .
inactive

###

- TGT: Luciferin 4-monooxygenase (Photinus pyralis) (UniProt P08659)
- ASSAY EXPLANATION: qHTS profiling assay for firefly luciferase inhibitor/activator using purifed enzyme and Km concentrations of substrates (counterscreen for miR-21 project); also: nearly all actives have a fitted effect of over 55% in size
- PARTICULARS: purified FLuc, luminescence inhibition; series mostly up to 57.5 µM
Screen size: about 360,000 compounds; about 25,000 (6.9%) were called active. Another 9% or so got no clear call; they are omitted. Calls come from the whole dose curve; as a rule, active = well fitted inhibition curve with a large enough effect; inconclusive = small, poorly fitted or top-dose-only effect; inactive = flat fitted curve, though single readings scatter. Shown is part of a subset that was picked to be rich in actives.
Your answer must be one of the following: 1 for active, 0 for inactive

Sample answers from the record:
Cc1nnc(NC(=O)C(c2ccccc2)c2ccccc2)s1 ... 0
Cc1cccc(N2C(=O)c3ccc(C(=O)Nc4cccc(C(=O)O)c4)cc3C2=O)c1 ... 1
CCc1ccccc1NC(=O)N1CCC2(CC1)Oc1ccccc1C(=O)N2Cc1ccccc1F ... 0

Tell me the recorded outcome of this test for `COc1cccc2c(N/N=C/c3ccco3)cc(C)nc12` .
0

Tell me the recorded outcome of this test for `Cc1ccc(Cl)cc1NC(=O)COC(=O)CC(C)(C)C` .
0

Tell me the recorded outcome of this test for `Cc1ccc(CNC(=O)CSc2nnc3c(n2)[nH]c2ccc(F)cc23)cc1` .
0

Tell me the recorded outcome of this test for `CCCCCn1c(CCCNC(=O)c2ccccc2OC)nc2ccccc21` .
0

Tell me the recorded outcome of this test for `Cc1nnc(NC(=O)c2ccc3nccnc3c2)s1` .
1
